test system: A673/TR/shEF; experiment: cell viability (LOESS-normalised, relative to median of negative controls) (log2 ratio); higher = more viable cells (less compound effect), active = hit call of the paper (over 3 MAD below the median); conditions: 0.025 µM; library screen: screen1; EWS-FLI1 expression: low (doxycycline-induced shRNA knockdown); treatment time: 72 h
Hit rate of the full screen: of about 3,200 compounds, about 300 (9.4%) showed activity. The entries come from a sample that favours actives as a whole.
Reported cell viability (log2) values for the following compounds.
Parameter: cell viability (log2)

                                   compound  observed
0  CC1(C(=O)O)C2CCC(O2)C1(C)C(=O)O (stereo unspecified)   -0.0798
1      N#CC(C#N)=Cc1ccc([N+](=O)[O-])c(O)c1    0.0132
2                        O=P(O)(O)Cc1ccccc1   -0.0367
3        C/C(O)=C(\C#N)C(=O)Nc1cc(Br)ccc1Br   -0.0693
4  CC(=O)c1c(O)c(C)c(O)c(Cc2c(O)c3c(c(C(=O)/C=C/c4ccccc4)c2O)OC(C)(C)C=C3)c1O    0.0263
5   N#CC(C#N)=Cc1cc(O)c(O)c([N+](=O)[O-])c1   -0.0184

----------
system: A673/TR/shEF; assay: cell viability (LOESS-normalised, relative to median of negative controls) (log2 ratio); higher = more viable cells (less compound effect), active = hit call of the paper (over 3 MAD below the median); conditions: 2.5 µM; library screen: screen1; EWS-FLI1 expression: high (no doxycycline); treatment time: 72 h
In all, about 3,200 compounds went through this assay and about 300 (9.4%) showed activity. Many of the other results were omitted from the sample, so actives are more common in it than they were.
Classes used: label 1 = active, label 0 = inactive

Molecule	Class
CNC(=O)Oc1cccc2c1OC(C)(C)O2	label 0
C[C@]12CC[C@H](O)C[C@H]1CC[C@@H]1[C@@H]2CC[C@]2(C)[C@@H](C3=CC(=O)OC3)[C@@H](O)C[C@]12O	label 0
CN1[C@@H]2CC[C@H]1CC(OC(=O)C(CO)c1ccccc1)C2 (stereo partly drawn)	label 0
CCOP(=S)(OCC)Oc1ccc2c(C)c(Cl)c(=O)oc2c1	label 0
OC[C@H]1O[C@@H](n2cnc3cc(Cl)c(Cl)cc32)[C@H](O)[C@@H]1O	label 1
CC(=O)OC1CC(OC2C(O)CC(OC3C(O)CC(OC4CCC5(C)C(CCC6C5CC(O)C5(C)C(C7=CC(=O)OC7)CCC65O)C4)OC3C)OC2C)OC(C)C1OC1OC(CO)C(O)C(O)C1O (stereo not drawn)	label 1
O=C1C=CC(=O)c2c(O)cccc21	label 0
Cc1ccccc1O	label 0
CO[C@H]1C[C@H](O[C@H]2CC[C@@]3(C)[C@H](CC[C@@H]4[C@@H]3CC[C@]3(C)[C@@H](C5=CC(=O)OC5)[C@@H](OC(C)=O)C[C@]43O)C2)O[C@@H](C)[C@@H]1O	label 1
CCC(C)C(=O)O[C@@H]1C[C@@]2(C)[C@H](c3ccoc3)OC(=O)CC23OC2(C)OC14C1(C)[C@@H](CC(=O)OC)C5(C)CC1(O)C(O)([C@@H](OC(C)=O)C43O2)[C@H]5OC(=O)C1(C)OC1C (stereo partly drawn)	label 0
CSc1nc(NC(C)C)nc(NC(C)C)n1	label 0
CC(C)=CCOc1c2occc2cc2ccc(=O)oc12	label 0
C=C(C)c1cc2cc(C(C)=O)c(O)cc2o1	label 0
CC(C)N(C(=O)SCC(Cl)=C(Cl)Cl)C(C)C	label 0
CNC(=O)Oc1cccc2c1OC(C)(C)C2	label 0
C[C@H]1O[C@@H](O[C@H]2[C@@H](O)C[C@H](O[C@H]3[C@@H](O)C[C@H](O[C@H]4CC[C@@]5(C)[C@H](CC[C@@H]6[C@@H]5CC[C@]5(C)[C@@H](C7=CC(=O)OC7)[C@@H](O)C[C@]65O)C4)O[C@@H]3C)O[C@@H]2C)C[C@H](O)[C@@H]1O	label 1
Cc1ccccc1CN1CCN(Cc2ccc(F)cc2)CC1	label 0
CC(=O)O[C@@H]1CC[C@@]2(C)[C@@H](CC[C@@H]3[C@@H]2CC[C@]2(C)C(=O)CC[C@@H]32)C1	label 0
